test system: 126254-015-R-J1-PDC complex spheroid growth, % test/control; experiment: Anticancer human tumor 126254-015-R-J1-PDC patient-derived soft tissue sarcoma cell line growth inhibition [Asc]; settings: curve of first compound; second compound 3 µM;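 also: spheroids exposed to compound for seven days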
pIC50: −log10 of the molar value.
READOUT_KIND: pIC50

Please review the following examples before continuing.
compound="Cn1ncnc1[C@H]1c2n[nH]c(=O)c3cc(F)cc(c23)N[C@@H]1c1ccc(F)cc1 + CCN1C(C(=O)NC23CCC(C(=O)O)(CC2)CC3)C(c2cccc(Cl)c2F)C2(C(=O)Nc3cc(Cl)ccc32)C12CCCCC2" target_under_test="126254-015-R-J1-PDC complex spheroid growth, % test/control" recorded_measurement="< 7.00"
compound="CCN1CCN(Cc2ccc(Nc3ncc(F)c(-c4cc(F)c5nc(C)n(C(C)C)c5c4)n3)nc2)CC1 + CCN1C(C(=O)NC23CCC(C(=O)O)(CC2)CC3)C(c2cccc(Cl)c2F)C2(C(=O)Nc3cc(Cl)ccc32)C12CCCCC2" target_under_test="126254-015-R-J1-PDC complex spheroid growth, % test/control" recorded_measurement="< 6.00"
compound="Cc1nc(N2CCC3(CC2)COC(C)C3N)c(CO)nc1Sc1ccnc(N)c1Cl (stereo not given) + CCN1C(C(=O)NC23CCC(C(=O)O)(CC2)CC3)C(c2cccc(Cl)c2F)C2(C(=O)Nc3cc(Cl)ccc32)C12CCCCC2" target_under_test="126254-015-R-J1-PDC complex spheroid growth, % test/control" recorded_measurement=6.05
compound="C=CC(=O)N1CCN(c2nc(=O)n(-c3c(C)ccnc3C(C)C)c3nc(-c4c(O)cccc4F)c(F)cc23)C(C)C1 (stereo not given) + CCN1C(C(=O)NC23CCC(C(=O)O)(CC2)CC3)C(c2cccc(Cl)c2F)C2(C(=O)Nc3cc(Cl)ccc32)C12CCCCC2" target_under_test="126254-015-R-J1-PDC complex spheroid growth, % test/control" recorded_measurement="< 5.00"

Kindly review the next compound as well.
For the compound O=C(c1cc(Cc2n[nH]c(=O)c3ccccc23)ccc1F)N1CCN(C(=O)C2CC2)CC1 + CCN1C(C(=O)NC23CCC(C(=O)O)(CC2)CC3)C(c2cccc(Cl)c2F)C2(C(=O)Nc3cc(Cl)ccc32)C12CCCCC2 , what pIC50 is on record?
< 5.00
